target: rat P2X3 receptor (Rattus norvegicus); construct: expressed in transfected cells; host or cells: CHO-K1; assay: P2X3/P2X2/3 FLIPR (Fluorometric Imaging Plate Reader) Assay, P2X3; format: cell-based; conditions: CHO-K1 cells transfected with rat P2X3; agonist α,β-meATP 1 μM; Table 1; read-out: P2X3 pKi (converted)
Sequence (P49654 whole entry): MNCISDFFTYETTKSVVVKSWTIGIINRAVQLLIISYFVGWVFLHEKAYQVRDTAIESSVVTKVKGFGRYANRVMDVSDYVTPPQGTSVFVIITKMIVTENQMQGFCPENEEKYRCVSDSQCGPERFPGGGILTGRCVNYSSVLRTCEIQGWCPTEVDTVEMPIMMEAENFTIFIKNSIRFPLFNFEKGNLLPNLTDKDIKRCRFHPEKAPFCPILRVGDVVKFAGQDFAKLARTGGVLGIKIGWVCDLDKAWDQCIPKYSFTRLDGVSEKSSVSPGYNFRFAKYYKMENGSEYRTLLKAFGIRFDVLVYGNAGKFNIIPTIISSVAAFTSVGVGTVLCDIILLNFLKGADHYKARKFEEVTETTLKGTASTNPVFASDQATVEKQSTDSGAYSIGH
log10 Ki for assorted molecules
quantity-name: log10 Ki (log10 of the value in µM)

{"columns": ["molecule", "result-number"],
 "data": [
  ["Cc1ccc(-c2cc(C(=O)NC(C)c3cnccn3)cc(-c3ncnn3C(C)C)c2)cc1 (centres unmarked)", -1.89],
  ["COCc1ncnn1-c1cc(C(=O)NC(C)c2cnccn2)cc(-c2ccc(C)cc2)c1 (centres unmarked)", -2.29],
  ["Cc1ccc(-c2cc(C(=O)NCc3ccc(C)nn3)cc(-n3ncnc3C3CCC3)c2)nc1", -2.24],
  ["CCn1cc(-c2cc(C(=O)NC(C)c3cnccn3)cc(-c3ccc(C)cc3)c2)nn1 (centres unmarked)", -0.74],
  ["CC(NC(=O)c1cc(-c2ccc(Cl)cn2)cc(-n2ncnc2C(F)F)c1)c1cnccn1 (centres unmarked)", -1.99],
  ["Cc1ccc(-c2cc(C(=O)NCc3cnc(C)cn3)cc(-n3ncnc3C3CCC3)c2)nc1", -2.64],
  ["Cc1ccc(-c2cc(C(=O)NC(C)c3cnccn3)cc(-n3nncc3C(C)C)c2)c(F)c1 (centres unmarked)", -1.92],
  ["Cc1cnc(CNC(=O)c2cc(-c3ccc(Cl)cn3)cc(-n3ncnc3C(C)(C)C)c2)cn1", -1.85]
]}
